Test system: Nasturtium officinale (NAAOF)
Assay: Example B1 herbicidal action, post-emergence, 96-cell seed trays, climatic chamber
Format: in vivo
Set-up: scale not given here
Settings: Application post-emergence, 1000 mg/l spray equivalent to 1000 g/ha, evaluated after 9 days (100=total damage to plant, 0=no damage to plant)
Procedure: Seeds of a variety of test species were sown in sterilised standard soil in seed trays each having 96 cells. […] After 9 days until the test was evaluated (100=total damage to plant, 0=no damage to plant)
Param label: returns yes (1) when damage to plant, Nasturtium officinale (NAAOF) < 6, returns no (0) otherwise, including exact equality.

Exam item: damage to plant, Nasturtium officinale (NAAOF) strictly < 6 for this molecule? C=CCn1c(=O)c(-c2cccc(C(F)(F)F)c2Cl)c(OC(=O)C(C)C)c2nccnc21
Marked response: no (0)

Exam item: Record Cn1c(=O)c(-c2c(F)ccc(F)c2Cl)c(OC(=O)CC(C)(C)C)c2nccnc21 : is its damage to plant, Nasturtium officinale (NAAOF) strictly below 6?
Marked response: no (0)

Exam item: hey, is damage to plant, Nasturtium officinale (NAAOF) for CC(C)(C)C(=O)Oc1c(-c2ccccc2OC(F)(F)F)c(=O)n(CC2CC2)c2nccnc12 lower than 6 or not?
Marked response: yes (1)

Exam item: # TODO verify damage to plant, Nasturtium officinale (NAAOF) < 6 strictly for this molecule: C=CCCCCCCCCC(=O)Oc1c(-c2c(F)ccc(F)c2Cl)c(=O)n(C)c2nccnc12
Marked response: yes (1)

Exam item: I'd appreciate it if you could check whether COc1cccc(C(=O)Oc2c(-c3c(F)ccc(F)c3Cl)c(=O)n(C)c3nccnc23)c1 has damage to plant, Nasturtium officinale (NAAOF) smaller than 6.
Marked response: yes (1)

Exam item: damage to plant, Nasturtium officinale (NAAOF) strictly < 6 for this molecule? Cn1c(=O)c(-c2ccccc2C(F)(F)F)c(OC(=O)C(C)(C)C)c2nccnc21
Marked response: yes (1)

Exam item: Report whether reported damage to plant, Nasturtium officinale (NAAOF) is lower than 6 (strictly) for Cc1cc(C(=O)Oc2c(-c3c(F)ccc(F)c3Cl)c(=O)n(C)c3nccnc23)c(C)o1
Marked response: no (0)

Exam item: Does this molecule meet the criterion damage to plant, Nasturtium officinale (NAAOF) < 6? CCC(=O)Oc1c(-c2ccc(F)cc2Cl)c(=O)n(C)c2nccnc12
Marked response: yes (1)

Exam item: Please determine if CCn1c(=O)c(-c2cccc(C(F)(F)F)c2Cl)c(OC(=O)C(C)C)c2nccnc21 is below 6 in terms of damage to plant, Nasturtium officinale (NAAOF).
Marked response: no (0)

Exam item: Given CC(C)C(=O)Oc1c(-c2ccc(F)cc2Cl)c(=O)n(C)c2nccnc12 , is recorded damage to plant, Nasturtium officinale (NAAOF) strictly lower than 6?
Marked response: no (0)

Exam item: Lab log: compare recorded damage to plant, Nasturtium officinale (NAAOF) with 6; is it strictly lower for COc1c(Cl)cc(Cl)cc1-c1c(O)c2nccnc2[nH]c1=O ?
Marked response: yes (1)

Exam item: Quick check: damage to plant, Nasturtium officinale (NAAOF) of O=c1[nH]c2nccnc2c(O)c1-c1cccc(C(F)(F)F)c1Cl under 6?
Marked response: yes (1)

Exam item: I wonder whether O=c1[nH]c2nccnc2c(O)c1-c1ccc(F)cc1Cl has damage to plant, Nasturtium officinale (NAAOF) below 6. Can you tell?
Marked response: yes (1)

Exam item: Please determine if Cc1ccc(Cl)c(-c2c(OC(=O)C(C)C)c3nccnc3n(C)c2=O)c1F is below 6 in terms of damage to plant, Nasturtium officinale (NAAOF).
Marked response: yes (1)
